- Condition set: buffer; pH 7.4; 200.0 µM
Give solubility kinetic for every item shown.

Problem: What solubility kinetic value was documented for this compound, COC(=O)C1=C(C)Nc2nc3ccccc3n2C1c1ccccc1F (stereo unspecified) ?
Result: 0.3 µg/mL

Problem: Query CS(=O)(=O)c1ccccc1C(=O)Nc1ccc(S(=O)(=O)N2CCCC2)cc1 next
Result: > 61.3 µg/mL

Problem: Query Cc1cc(C)c(NC(=O)CN2CCCCCC2)c(C)c1 next
Result: > 41.2 µg/mL

Problem: Query Cc1c(C(=O)O)sc2[nH]c(=O)n(Cc3ccccc3)c(=O)c12 next
Result: 45.7 µg/mL

Problem: Query Cc1ccsc1/C=N/N1CCOCC1 next
Result: > 31.5 µg/mL

Problem: Query C=CCOc1ccc(C2NC(=S)NC3=C2CCc2ccccc23)cc1 (stereo unspecified) next
Result: 11.2 µg/mL

---

- Condition set: buffer; pH 7.4; 200.0 µM
Give log10 solubility kinetic for every item shown.
Could you please treat all values as log10 of solubility kinetic in µg/mL?

Problem: What log10 solubility kinetic value was documented for this molecule, CC(=O)Oc1ccc(-c2nc3ccccc3c(=O)o2)cc1 ?
Result: 0.41

Problem: Query O=C(Nc1nc2ccccc2n1CCN1CCOCC1)c1ccc(Cl)cc1 next
Result: -0.05

Problem: Query O=C(O)[C@@H]1Cc2ccccc2N1 next
Result: 0.82

Problem: Query CC(=O)c1ccccc1OCCCOc1cccc2cccnc12 next
Result: 1.66

Problem: Query CN(C)c1cc[n+](CC(=O)c2cccs2)cc1.[Cl-] next
Result: 1.62

Problem: Query Cc1cnc(NC(=O)CCc2ccccc2)s1 next
Result: 0.94

Problem: Query NS(=O)(=O)c1ccc(NC(=O)c2cc(Cl)sc2Cl)cc1 next
Result: 1.19

Problem: Query Cc1ccc(C(C)NC(=S)NC2CCCCC2)c(C)c1 (configuration not stated) next
Result: 0.96

---

- Condition set: buffer; pH 7.4; 200.0 µM
solubility kinetic below 40 µg/mL gives not fulfilled; solubility kinetic at or above it gives fulfilled.

Problem: Item O=C(OCC(=O)N1CCOCC1)c1ccc(N2CCOCC2)c([N+](=O)[O-])c1 with solubility kinetic of 40 µg/mL or above?
Result: fulfilled

Problem: Query Cc1ccccc1NC(=O)c1cccc(C(=O)Nc2ccccc2C)n1 next
Result: not fulfilled

Problem: Query O=C(Nc1ccccc1N1CCCC1)c1ccc2ccccc2c1 next
Result: not fulfilled

Problem: Query COc1ccc(CNC(=O)C(NC(C)=O)C(C)C)cc1OC (stereo unspecified) next
Result: fulfilled

Problem: Query COc1ccc(Oc2ccc(C(F)(F)F)cc2N)cc1 next
Result: not fulfilled

Problem: Query Cc1sc2ncnc(SCC(=O)Nc3cccc(S(N)(=O)=O)c3)c2c1C next
Result: not fulfilled

Problem: Query O=C(NCCCc1nc2ccccc2[nH]1)c1ccc(F)cc1 next
Result: fulfilled

Problem: Query CN(C)Cc1c(O)ccc2c(=O)c(-c3ccc(Cl)cc3)coc12 next
Result: fulfilled

Problem: Query CCOc1ccc(CN(C)C(=O)c2ccc(=O)[nH]c2)cc1 next
Result: not fulfilled

---

Give solubility kinetic for every item shown.
- Condition set: buffer; pH 7.4; 200.0 µM
Reply with just the number (in µg/mL).

Problem: What solubility kinetic value was documented for this compound, Nc1nc2ncc(C(=O)c3cc(F)ccc3O)cc2s1 ?
Result: 7

Problem: Query O=C(/C=C/Nc1ccc(F)c(Cl)c1)c1ccccc1 next
Result: 0.7

Problem: Query c1ccc(-c2csc(Nc3ccccn3)n2)cc1 next
Result: 0.3

Problem: Query Cn1ccsc1=NC(=O)c1ccc([N+](=O)[O-])o1 next
Result: 18.4

Problem: Query CCOc1ncccc1C(=O)OCC(=O)Nc1ccc(Cl)cn1 next
Result: 15

Problem: Query CSc1ncccc1C(=O)NC1CCCCCCC1 next
Result: 21.7

Problem: Query CCn1c(SC(C)C(=O)NCC2CCCO2)nc2ccccc21 (configuration not stated) next
Result: 49.9

Problem: Query O=C(COC(=O)Cc1c(F)cccc1Cl)NCc1ccc2c(c1)OCO2 next
Result: 46.5
